Property: CRF2R EC50; scope: individual binders
Target: T1, CRF2R
T1 sequence (Q13324 whole entry, species assumed, looked up): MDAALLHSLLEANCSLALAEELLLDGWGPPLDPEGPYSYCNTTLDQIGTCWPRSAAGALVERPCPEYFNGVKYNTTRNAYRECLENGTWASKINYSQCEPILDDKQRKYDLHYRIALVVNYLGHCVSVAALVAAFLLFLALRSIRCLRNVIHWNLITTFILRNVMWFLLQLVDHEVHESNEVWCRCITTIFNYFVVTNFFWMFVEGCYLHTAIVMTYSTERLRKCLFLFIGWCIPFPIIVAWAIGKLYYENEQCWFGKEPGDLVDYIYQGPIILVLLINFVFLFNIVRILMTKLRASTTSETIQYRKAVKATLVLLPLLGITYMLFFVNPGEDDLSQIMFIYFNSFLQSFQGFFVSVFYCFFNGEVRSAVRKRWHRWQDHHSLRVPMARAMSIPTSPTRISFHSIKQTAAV
Assay: cell-based or functional assay
Ends that are not written are not given here.
// note: answer is a bare numeric in nM

# example entries with known answers
>>> numeric_value("IVLSLDVPIGLLQKMIEIEKQEKEKQQATTNARILARV-NH2 [SEQ ID NO 322]")
23.1
>>> numeric_value("NDDPPISIDLPTYLLRNMIEMARIENEREQAGLNAKYLAEV-NH2 [SEQ ID NO 266]")
100

Challenge: Give me measured CRF2R EC50, please, for this binder: NDDPPISIDLPFYLLRNMIEMARIENEREQAGLNAKYLAEV-NH2 [SEQ ID NO 261]
Response given: 100

Challenge: Recall and state the measured CRF2R EC50 for ZGPPISIDLPFQLLRKVIEIEKQEKEKQQAANNAELLAEI (not fully specified; C-terminal amide) [SEQ ID NO 272] .
Response given: 23.3

Challenge: Let me know recorded CRF2R EC50 for DNPSLSIDLPLLLLRTLLELEKTQSQRERAEQNAQIFAQV-NH2 [SEQ ID NO 327] , thanks.
Response given: 28.4

Challenge: Consider the binder ZGPPISIDLPHQLLRKMIEIEKQEKEKQQAANNRLLLDTI (C-terminal amide) [SEQ ID NO 212] . State its measured CRF2R EC50.
Response given: 21.3

Challenge: Kindly indicate its recorded CRF2R EC50. Item: DNPSLSIDLPLILLRTLLELEKTQSQRERAEQNARIFDRV-NH2 [SEQ ID NO 337]
Response given: 23.9

Challenge: Kindly indicate its recorded CRF2R EC50. Item: NDDPPISIDLPLFLLRNMIEMARIENEREQAGLNAKYLAEV-NH2 [SEQ ID NO 257]
Response given: 100

Challenge: Quote CRF2R EC50 reported for ZGPPISIDLPYYLLRKMIEIEKQEKEKQQAANNALLLDTI (C-terminal amide) [SEQ ID NO 226] please.
Response given: 7.6

Challenge: Supply measured CRF2R EC50 of PSLSIDLPLLLLRTLLELEKTQSQRERAEQNAIIFASV-NH2 [SEQ ID NO 344] in your reply.
Response given: 4.3

Challenge: Give a short answer stating reported CRF2R EC50 for ZGPPISIDLPFFLLRKMIEIEKQEKEKQQAANNRLLLDTI (C-terminal amide) [SEQ ID NO 223] .
Response given: 3

Challenge: Give the measured CRF2R EC50 for ZGPPISIDLPAFLLRKMIEIEKQEKEKQQAANNRLLLDTI (C-terminal amide) [SEQ ID NO 222]
Response given: 9.4

Challenge: Give me measured CRF2R EC50, please, for this binder: ZGPPISIDVPYWLLRKVIEIEKQEKEKQQAANNARLLARI (C-terminal amide) [SEQ ID NO 373]
Response given: 11.5

Challenge: Find the measured CRF2R EC50 of ZGPPISIDLPQYLLRKMIEIEKQEKEKQQAANNALLLDTI (C-terminal amide) [SEQ ID NO 224] and report it.
Response given: 26.9

Challenge: Report CRF2R EC50 for ZGPPISIDLPQFLLRKMIEIEKQEKEKQQAANNRLLLDTI (C-terminal amide) [SEQ ID NO 221]
Response given: 8.5

Challenge: Answer with the recorded CRF2R EC50 for the binder listed here: ZGPPISIDLPLYLLRKMIEIEKQEKEKQQATTNARILARV (C-terminal amide) [SEQ ID NO 353]
Response given: 4.75

Challenge: Report measured CRF2R EC50; entry is ZGPPISIDLPLYLLRKMIEIEKQEKEKQQATTNARLLDTV (C-terminal amide) [SEQ ID NO 242]
Response given: 29

The measured values listed here are drawn from patent US20030148958A1.
